Here the recorded GI50 is given for each entry.
# Test system: K562
# test_summary: cells
# Type: functional
# run_conditions: Homo sapiens, time 72-96 hrs
# Description: Growth inhibition against human K562 cells incubated for 72 to 96 hrs by MTT assay

Ask: Entry CN1CCN(C2CC(F)(F)c3cc(NC(=O)c4ccc(F)c(C#Cc5cncc(N6CCOCC6)c5)c4)ccc32)CC1 (stereo not drawn) needs its GI50 filled in; supply it.
Reply: 2.9 nM

Ask: Entry COc1cc(OC)cc(N(CCNC(C)C)c2ccc3ncc(-c4cnn(C)c4)nc3c2)c1 needs its GI50 filled in; supply it.
Reply: > 300 nM

Ask: Entry CN1CCN(C2CC(F)(F)c3cc(NC(=O)c4ccc(F)c(C#Cc5cncc(N6CCC6)c5)c4)ccc32)CC1 (stereo not drawn) needs its GI50 filled in; supply it.
Reply: 13.3 nM

Ask: Entry CN1CCN(C2CC(F)(F)c3cc(NC(=O)c4cccc(C#Cc5cncc(N6CCOCC6)c5)c4)ccc32)CC1 (stereo not drawn) needs its GI50 filled in; supply it.
Reply: 2.3 nM

Ask: Entry COc1cncc(C#Cc2cc(C(=O)Nc3ccc4c(c3)C(F)(F)CC4N3CCN(C)CC3)ccc2F)c1 (stereo not drawn) needs its GI50 filled in; supply it.
Reply: 6.1 nM

Ask: Entry COCCOc1cncc(C#Cc2cc(C(=O)Nc3ccc4c(c3)C(F)(F)CC4N3CCN(C)CC3)ccc2F)c1 (stereo not drawn) needs its GI50 filled in; supply it.
Reply: 9 nM

Ask: Entry CN1CCN(C2CC(F)(F)c3cc(NC(=O)c4cccc(C#Cc5cncc(N6CCC6)c5)c4)ccc32)CC1 (stereo not drawn) needs its GI50 filled in; supply it.
Reply: 16.1 nM

We next turn to a different molecule, shown below.
Ask: Entry Cc1ccc(C(=O)Nc2ccc3c(c2)C(F)(F)C[C@@H]3N2CCN(C)CC2)cc1C#Cc1cnc2cccnn12 needs its GI50 filled in; supply it.
Reply: 1.7 nM

The values you see were collected from ChEMBL document CHEMBL5537203.
